target: Cytochrome P450 2C9 (Homo sapiens, UniProt P11712); assay: Inhibition of huamn liver microsome Cytochrome P450 2C9; format: ADME, microsomes
Sequence (P11712 whole entry): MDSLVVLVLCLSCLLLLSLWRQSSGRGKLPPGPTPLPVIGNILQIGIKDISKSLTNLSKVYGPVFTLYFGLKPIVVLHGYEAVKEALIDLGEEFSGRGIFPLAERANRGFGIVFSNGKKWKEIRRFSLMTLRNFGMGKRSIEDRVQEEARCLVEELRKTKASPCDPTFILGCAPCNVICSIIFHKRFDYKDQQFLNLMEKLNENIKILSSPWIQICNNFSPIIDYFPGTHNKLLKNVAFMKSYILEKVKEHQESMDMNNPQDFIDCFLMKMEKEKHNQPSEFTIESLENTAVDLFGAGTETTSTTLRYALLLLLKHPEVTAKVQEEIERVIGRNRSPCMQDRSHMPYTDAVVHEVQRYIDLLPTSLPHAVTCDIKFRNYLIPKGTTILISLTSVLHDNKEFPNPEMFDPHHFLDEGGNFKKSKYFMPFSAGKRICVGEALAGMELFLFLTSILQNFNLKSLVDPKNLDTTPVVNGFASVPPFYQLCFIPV
For each record, write down the corresponding IC50.
The reply should contain only the number, in µM.

Recorded IC50 of O=C(N[C@H]1c2ccccc2OC[C@H]1O)[C@H](Cc1cccnc1)C[C@H](O)CN1CCN(Cc2ccc(-c3ccccc3)o2)C[C@H]1C(=O)NCC(F)(F)F , please.
83.9

Same read-out for O=C(N[C@H]1c2ccccc2OC[C@H]1O)[C@H](Cc1cccnc1)C[C@H](O)CN1CCN(Cc2cc3ccccc3o2)C[C@H]1C(=O)NCC(F)(F)F ?
48.8

----------
Give measured IC50 for each item. Keep answers brief.
target: Human immunodeficiency virus type 1 protease (Human immunodeficiency virus 1); test: Inhibitory activity of compound against HIV-1 protease in HIV-1 (V-18C) strain
Output spec: scalar in nM, unitless text.

Recorded IC50 of O=C(N[C@H]1c2ccccc2OC[C@H]1O)[C@H](Cc1ccccc1)C[C@H](O)CN1CCN(Cc2ccc(-c3ccncc3)o2)C[C@H]1C(=O)NCC(F)(F)F , please.
1.3

Try the compound O=C(N[C@H]1c2ccccc2OC[C@H]1O)[C@H](Cc1ccncc1)C[C@H](O)CN1CCN(Cc2cc3ccccc3o2)C[C@H]1C(=O)NCC(F)(F)F
2.2

Can you check O=C(N[C@H]1c2ccccc2OC[C@H]1O)[C@H](Cc1ccncc1)C[C@H](O)CN1CCN(Cc2ccc(-c3ccccc3)o2)C[C@H]1C(=O)NCC(F)(F)F next?
0.34

Same question for O=C(N[C@H]1c2ccccc2OC[C@H]1O)[C@H](Cc1ccncc1)C[C@H](O)CN1CCN(Cc2cc3cccc(Cl)c3o2)C[C@H]1C(=O)NCC(F)(F)F please.
0.14

Please do the same for O=C(N[C@H]1c2ccccc2OC[C@H]1O)[C@H](Cc1cccnc1)C[C@H](O)CN1CCN(Cc2cc3ccccc3o2)C[C@H]1C(=O)NCC(F)(F)F as well.
1.3

Then what about the compound O=C(N[C@H]1c2ccccc2OC[C@H]1O)[C@H](Cc1cccnc1)C[C@H](O)CN1CCN(Cc2cc3cccc(Cl)c3o2)C[C@H]1C(=O)NCC(F)(F)F ?
0.12

Next: O=C(N[C@H]1c2ccccc2OC[C@H]1O)[C@H](Cc1cccnc1)C[C@H](O)CN1CCN(Cc2ccc(-c3ccccc3)o2)C[C@H]1C(=O)NCC(F)(F)F
0.15

----------
assay: Area under curve of compound after both po and iv administration at a dose of 5 mg/kg and 2 mg/kg resp in dog; type: ADME, organism-based, Canis lupus familiaris; conditions: in vivo
METRIC: AUC (µM·h)
Lab book: enter the figure in µM·h, no units written.

Given the compound O=C(N[C@H]1c2ccccc2OC[C@H]1O)[C@H](Cc1ccncc1)C[C@H](O)CN1CCN(Cc2ccc(-c3ccccc3)o2)C[C@H]1C(=O)NCC(F)(F)F , what is its reported AUC?
0.16

How about O=C(N[C@H]1c2ccccc2OC[C@H]1O)[C@H](Cc1ccccc1)C[C@H](O)CN1CCN(Cc2ccc(-c3ccncc3)o2)C[C@H]1C(=O)NCC(F)(F)F ?
2.58

Same thing, different compound: O=C(N[C@H]1c2ccccc2OC[C@H]1O)[C@H](Cc1cccnc1)C[C@H](O)CN1CCN(Cc2cc3ccccc3o2)C[C@H]1C(=O)NCC(F)(F)F
1.94

Moving on to the next compound: O=C(N[C@H]1c2ccccc2OC[C@H]1O)[C@H](Cc1cccnc1)C[C@H](O)CN1CCN(Cc2ccc(-c3ccccc3)o2)C[C@H]1C(=O)NCC(F)(F)F
0.08

Another compound: O=C(N[C@H]1c2ccccc2OC[C@H]1O)[C@H](Cc1ccncc1)C[C@H](O)CN1CCN(Cc2cc3ccccc3o2)C[C@H]1C(=O)NCC(F)(F)F
0.22

----------
assay: Clearance of compound after both po and iv administration at a dose of 5 mg/kg and 2 mg/kg resp in dog; format: ADME, organism-based, Canis lupus familiaris; conditions: in vivo
I'd be grateful if you could share measured clearance for these entries.
State just the number; it will be interpreted in mL/min/kg.

Could you share which clearance value was measured for O=C(N[C@H]1c2ccccc2OC[C@H]1O)[C@H](Cc1cccnc1)C[C@H](O)CN1CCN(Cc2ccc(-c3ccccc3)o2)C[C@H]1C(=O)NCC(F)(F)F ?
20.5

What about this compound? O=C(N[C@H]1c2ccccc2OC[C@H]1O)[C@H](Cc1ccncc1)C[C@H](O)CN1CCN(Cc2ccc(-c3ccccc3)o2)C[C@H]1C(=O)NCC(F)(F)F
17.4

Also need O=C(N[C@H]1c2ccccc2OC[C@H]1O)[C@H](Cc1ccncc1)C[C@H](O)CN1CCN(Cc2cc3ccccc3o2)C[C@H]1C(=O)NCC(F)(F)F , thanks.
22.5

Check O=C(N[C@H]1c2ccccc2OC[C@H]1O)[C@H](Cc1ccccc1)C[C@H](O)CN1CCN(Cc2ccc(-c3ccncc3)o2)C[C@H]1C(=O)NCC(F)(F)F too.
24.5

And the next one, O=C(N[C@H]1c2ccccc2OC[C@H]1O)[C@H](Cc1cccnc1)C[C@H](O)CN1CCN(Cc2cc3ccccc3o2)C[C@H]1C(=O)NCC(F)(F)F ?
15

----------
Would you mind telling me the reported IC95 of each entry?
test system: MT4; assay: Antiviral activity of compound against spread of wild type K-60C virus infection in MT-4 human T-lymphoid cells; assay type: functional; conditions: read-out: CIC95

Endpoint output: IC95 of O=C(N[C@H]1c2ccccc2OC[C@H]1O)[C@H](Cc1ccncc1)C[C@H](O)CN1CCN(Cc2ccc(-c3ccccc3)o2)C[C@H]1C(=O)NCC(F)(F)F . Value?
≤ 8 nM

Another molecule to check: CC(C)(C)NC(=O)[C@@H]1CN(Cc2cccnc2)CCN1C[C@@H](O)C[C@@H](Cc1ccccc1)C(=O)N[C@H]1c2ccccc2C[C@H]1O
> 1000 nM

Now the molecule O=C(N[C@H]1c2ccccc2OC[C@H]1O)[C@H](Cc1ccncc1)C[C@H](O)CN1CCN(Cc2cc3cccc(Cl)c3o2)C[C@H]1C(=O)NCC(F)(F)F
62 nM

Another molecule to check: O=C(N[C@H]1c2ccccc2OC[C@H]1O)[C@H](Cc1cccnc1)C[C@H](O)CN1CCN(Cc2ccc(-c3ccccc3)o2)C[C@H]1C(=O)NCC(F)(F)F
≤ 8 nM

----------
biological target: Human immunodeficiency virus type 1 protease (Human immunodeficiency virus 1, UniProt Q72874); experiment: Inhibitory activity of compound against HIV-1 protease in wild type NL4-3 virus
METRIC: pIC50
Reminder that pIC50 means the negative base-10 logarithm of the concentration expressed in mol/L.

Suppose we examine the compound O=C(N[C@H]1c2ccccc2OC[C@H]1O)[C@H](Cc1ccncc1)C[C@H](O)CN1CCN(Cc2ccc(-c3ccccc3)o2)C[C@H]1C(=O)NCC(F)(F)F ; what pIC50 value has been reported?
10.40

Next compound: O=C(N[C@H]1c2ccccc2OC[C@H]1O)[C@H](Cc1ccncc1)C[C@H](O)CN1CCN(Cc2cc3cccc(Cl)c3o2)C[C@H]1C(=O)NCC(F)(F)F
10.52

What would you report for O=C(N[C@H]1c2ccccc2OC[C@H]1O)[C@H](Cc1cccnc1)C[C@H](O)CN1CCN(Cc2cc3cccc(Cl)c3o2)C[C@H]1C(=O)NCC(F)(F)F ?
10.70

And then O=C(N[C@H]1c2ccccc2OC[C@H]1O)[C@H](Cc1cccnc1)C[C@H](O)CN1CCN(Cc2cc3ccccc3o2)C[C@H]1C(=O)NCC(F)(F)F , what is it?
10.40

Try O=C(N[C@H]1c2ccccc2OC[C@H]1O)[C@H](Cc1ccncc1)C[C@H](O)CN1CCN(Cc2cc3ccccc3o2)C[C@H]1C(=O)NCC(F)(F)F next.
10.00

Another: O=C(N[C@H]1c2ccccc2OC[C@H]1O)[C@H](Cc1cccnc1)C[C@H](O)CN1CCN(Cc2ccc(-c3ccccc3)o2)C[C@H]1C(=O)NCC(F)(F)F
10.70

----------
Would you mind telling me the reported IC50 of each entry?
target: Human immunodeficiency virus type 1 protease (Human immunodeficiency virus 1); experiment: Inhibitory activity of compound against HIV-1 protease in HIV-1 (Q-60C) strain
Please reply with the bare figure in pM and do not write the unit itself.

Using the record for O=C(N[C@H]1c2ccccc2OC[C@H]1O)[C@H](Cc1ccccc1)C[C@H](O)CN1CCN(Cc2ccc(-c3ccncc3)o2)C[C@H]1C(=O)NCC(F)(F)F , report its IC50.
800

Item: O=C(N[C@H]1c2ccccc2OC[C@H]1O)[C@H](Cc1cccnc1)C[C@H](O)CN1CCN(Cc2cc3ccccc3o2)C[C@H]1C(=O)NCC(F)(F)F
2700

How about O=C(N[C@H]1c2ccccc2OC[C@H]1O)[C@H](Cc1ccncc1)C[C@H](O)CN1CCN(Cc2ccc(-c3ccccc3)o2)C[C@H]1C(=O)NCC(F)(F)F ?
200

Also need O=C(N[C@H]1c2ccccc2OC[C@H]1O)[C@H](Cc1cccnc1)C[C@H](O)CN1CCN(Cc2ccc(-c3ccccc3)o2)C[C@H]1C(=O)NCC(F)(F)F , thanks.
70
